// provenance: PubChem BioAssay (NCI)

System: RXF 393 renal
assay_notes: NCI-60 one-dose screen, 48 h (100 = growth as untreated, 0 = no growth, -100 = all killed)
test_conditions: 10 µM unless noted
Procedure: Cells are grown in 96 well plates and exposed to the test compound for 48 hours. Compounds are tested at a single concentration, which is 10^-5 M for most compounds. The reported endpoint is percent growth (GI% or GIPRCNT), where numbers from 0 - 100% represent growth inhibition, and numbers from -100% - 0 represent cell death. For example, a value of 40 represents 60% growth inhibition. A value of 0 means no net growth occurred over the course of the experiment. […]
About 83,000 compounds went through this panel and 20% of them were active in at least one assay; those are over-represented in the sample as a whole.
recorded_endpoint: growth (%)
Field format: number, assumed %, no unit text.

CCN1C(=O)N(CC)C2Nn3c(s/c(=C4\C(=O)N(CC(C)C)c5ccccc54)c3=O)=NC21 (stereo unspecified)    -3.71
O=C(O)CCC(=O)Nc1nnc(-c2ccccc2)s1    120
COc1cc(C2CC(c3ccc(SC)cc3)=NN2C(C)=O)cc(OC)c1OC (stereo unspecified)    77.7
O=C(Nc1ccc(Br)cc1F)c1cc(Br)ccc1O    -8.01
COC(=O)Nc1ccc(-c2nc(-c3cccc(OC)c3)c(-c3ccnc(Br)c3)[nH]2)cc1    -12.2

Sample CN(C)CC#Cc1ccc2ncc(C#N)c(Nc3ccc(F)c(Cl)c3)c2c1 ; growth observed: 32.4
